Source of measurements: patent US10039839B2

MEASURED ON: Cyclophilin A (Homo sapiens)
Construct: made in house
Sequence (P62937 whole entry, species assumed): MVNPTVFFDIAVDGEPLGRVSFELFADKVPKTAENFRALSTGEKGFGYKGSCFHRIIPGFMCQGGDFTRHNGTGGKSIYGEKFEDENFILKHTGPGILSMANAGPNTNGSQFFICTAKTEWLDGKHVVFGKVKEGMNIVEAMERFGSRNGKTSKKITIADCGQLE
METHOD: biochemical
Type: binding
Square brackets hold non-standard residues; d marks the D form. Peptide text beside a SMILES is read from it. MeBmt = C/C=C/C[C@@H](C)[C@@H](O)[C@H](NC)C(=O)O; NMeY = CN[C@@H](Cc1ccc(O)cc1)C(=O)O; NMeL = CN[C@@H](CC(C)C)C(=O)O; NMeV = CN[C@H](C(=O)O)C(C)C; Abu = CC[C@H](N)C(=O)O; Sar = CNCC(=O)O
RECORDED METRIC: % inhibition of CsA binding to Cyclophilin A (%)
One number for each entry, in %.

Kindly note the recorded % inhibition of CsA binding to Cyclophilin A for C/C=C/C[C@@H](C)[C@@H](O)[C@H]1C(=O)N[C@@H](CC)C(=O)N(C)CC(=O)N(C)[C@@H](Cc2ccc(O)cc2)C(=O)N[C@@H](C(C)C)C(=O)N(C)[C@@H](CC(C)C)C(=O)N[C@@H](CC)C(=O)N[C@H](C)C(=O)N(C)[C@@H](CC(C)C)C(=O)N(C)[C@@H](CC(C)C)C(=O)N(C)[C@@H](C(C)C)C(=O)N1C [C100] (cyclo([Abu][Sar][NMeY]V[NMeL][Abu][dA][NMeL][NMeL][NMeV][MeBmt])) , which is 95.72
